Reference source for all entries: PubChem BioAssay AID2101

# Study target: Lysosomal acid glucosylceramidase (Homo sapiens) (UniProt P04062)
# Test method notes: qHTS Assay for Inhibitors and Activators of N370S glucocerebrosidase as a Potential Chaperone Treatment of Gaucher Disease
# Condition label: N370S GC spleen homogenate, 4MU-glucoside fluorescence; series mostly up to 59.4 µM
The campaign covered roughly 330,000 compounds. About 300 (0.091%) were called active. Not shown: some 4% with an inconclusive outcome. The sample holds actives, similar compounds and a random draw of the others, so the mix is not that of the screen.
Measured endpoint: activity change, negative = inhibition

{"columns": ["Compound", "activity change, negative = inhibition"],
 "data": [
  ["CC(C)(O/N=C(\\C(=O)N[C@@H]1C(=O)N2C(C(=O)[O-])=C(C[n+]3ccccc3)CS[C@@H]12)c1csc(N)n1)C(=O)O", "inactive"],
  ["O=S(=O)(Nc1ccc2nc(N3CCOCC3)sc2c1)c1ccccc1", "inactive"],
  ["CCCCC/C=C\\C/C=C\\C/C=C\\CCCCC(=O)NCC(=O)O", "inactive"],
  ["c1cncc(CNc2ccnc(-c3ccc4c(c3)OCO4)n2)c1", "inactive"]
]}

Hi there! I need activity change, negative = inhibition for each item below, if you can.
1. Cc1cc(C)c(C#N)c(SCC(=O)N(CC(C)C)C2CCS(=O)(=O)C2)n1 (configuration not stated)
2. CN(CC(=O)Nc1cccc(F)c1)C(=O)CC1CCCC1
3. COC(=O)[C@H]1C[C@@H]1[C@H](NC(=O)Oc1ccc(F)cc1)c1ccccc1
4. COC(=O)c1sc(NC(=O)COC(=O)C2CCC2)c(C(=O)OC)c1C
5. CCN(CC)CCCCn1c(-c2ccccc2)nc2c(N3CCOCC3)nc(C)nc21
6. c1ccc(Oc2ccccc2)cc1
7. CCc1c2c(nc3ccc(O)cc13)-c1cc3c(c(=O)n1C2)COC(=O)[C@]3(O)CC
8. COc1ccc(C2/C=C\CN(C(=O)c3ccc(C)cc3)C(Cc3ccccc3)C(=O)N2Cc2ccc(F)cc2)cc1 (configuration not stated)

Reply text:
inactive
inactive
inactive
inactive
inactive
inactive
inactive
inactive
